# target: HTRA2, O43464
# Sequence (O43464 355-458): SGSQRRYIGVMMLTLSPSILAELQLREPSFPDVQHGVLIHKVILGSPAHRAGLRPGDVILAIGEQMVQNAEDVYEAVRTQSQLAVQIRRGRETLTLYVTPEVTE
# assay-procedure: holdup assay
# Set-up: key: below the threshold = too weak to quantify, mostly under pKd 3.1 to 4
# condition-info: plain residues with an end cap or a label only (N-terminal biotin on a linker: ttds)
assay-endpoint: pKd

Before answering, review these 5 worked examples.
> print(dat)
                          binder      measured.result
1   PKTPPTDTSV [KIR3DL3, Q8N743]  below the threshold
2     STLTIFETAL [ABCC4, O15439]                 3.68
3   SVWLRKETRV [CYSLTR2, Q9NS75]                  3.5
4     GQDSREETQL [KCNT2, Q6UVM3]  below the threshold
5  IDNDTESTAL [ARHGAP17, Q68EM7]  below the threshold

Exam item: Entry VLRLQSETSV [VANGL1, Q8TAA9] has what pKd?
Marked response: below the threshold

Exam item: Entry TVASEKESVM [SLC1A5, Q15758] has what pKd?
Marked response: below the threshold

Exam item: Entry SSRTRRETQL [HPV16-E6, P03126] has what pKd?
Marked response: below the threshold

Exam item: Entry QSARYRDTEL [TJP2, Q9UDY2] has what pKd?
Marked response: below the threshold

Exam item: Entry RSLEEEESQL [GRASP, Q7Z6J2] has what pKd?
Marked response: 3.69

Exam item: Entry SRPQRTQTQV [HPV67-E6, A4U7F2] has what pKd?
Marked response: below the threshold

Exam item: Entry ERKLSSESQV [LRP4, O75096] has what pKd?
Marked response: below the threshold

Exam item: Entry IYVPEAQTRL [DLGAP4, Q9Y2H0] has what pKd?
Marked response: below the threshold

Values from paper PMC9482650
